Reference source: PubChem BioAssay (NCI)

# assay: NCI Yeast Anticancer Drug Screen. Data for the mlh1 rad18 strain (AID 175)
# condition parameters: S. cerevisiae mlh1 rad18 strain growth inhibition; at 5.0 µM (retest, dose inferred, filed as 0.5); stronger effect = higher value
About 79,000 compounds went through this panel and 15% of them were active in at least one assay; those are over-represented in the sample as a whole.
measured quantity: growth inhibition (%)
One number for each entry, in %.

Below, each entry is followed by its recorded growth inhibition result.
compound="COc1cc(C(c2cc3c(cc2O)OCO3)N2CCCCC2)cc(OC)c1OC (stereo not given)" display_unit=% number=-6
compound=N#CSCC(=O)c1ccc(Cl)cc1 display_unit=% number=36
compound=N#CC(C#N)=C(c1ccccc1)c1ccccc1 display_unit=% number=-4
compound="COc1ccc2c(c1)C(=O)C(Br)CC2 (stereo not given)" display_unit=% number=13
compound=Cc1cc(-c2ccccc2)nc2nc3ccccc3n12 display_unit=% number=-6

Record growth inhibition for all entries; do not skip any.
1. CCCCCCC(=O)CC(SCCN)c1ccccc1Cl (stereo not given)
2. CCOC(=O)C(CCc1ccccc1[N+](=O)[O-])C(C)=O (stereo not given)
3. O=C(O)c1ccc2c(c1)CC1(C2)Cc2cc3c(cc2C1=O)CCC3 (stereo not given)
4. COC(=O)C1CCC(c2ccccc2)CC1C(=O)OC (stereo not given)
5. O=C([O-])c1ccc([I+]c2ccccc2)cc1

Response line:
1
-20
25
-3
10

* * *

# assay: NCI Yeast Anticancer Drug Screen. Data for the rad50 strain (AID 155);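 also: 0% = growth of vehicle-only cultures of the same strain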
# condition parameters: S. cerevisiae rad50 strain growth inhibition; at 5.0 µM (retest, dose inferred, filed as 0.5)
The panel holds about 79,000 compounds, 15% with a hit somewhere; the sample as a whole holds those more often. Active and inactive are the calls of the source. Cut-off read from the data, not from the text of the source: active = growth inhibition above about 70%; inactive = the rest.
Choose one outcome from this list and give only that: 1.0 for active, 0.0 for inactive

Prompt line: Give the logged outcome of this assay for the following molecule: COC(=O)c1n[nH]c(C)c1N=NN1CCC(C(N)=O)CC1
Response line: 0.0

Prompt line: Another molecule to check: Clc1ccc(-c2cc(-c3cc(-c4ccc(Cl)c(Cl)c4)n[nH]3)[nH]n2)cc1Cl
Response line: 0.0

Prompt line: Same question, NC(=O)NC(CC(=O)O)C(=O)O (configuration not stated) this time
Response line: 0.0

Prompt line: Can you check N#Cc1c(Cl)nc2ccccc2c1N=[N+]=[N-] next?
Response line: 0.0

Prompt line: Can you check O=C(Nc1ccccc1-c1nn(C(=S)Nc2ccccc2)c(=S)n(C(=S)Nc2ccccc2)c1=O)C(F)(F)F next?
Response line: 0.0

Prompt line: One more molecule: CC(C)C(=O)NNc1ccccc1
Response line: 0.0

Prompt line: Record: O=S(=O)(O)N=Nc1ccc(O)cc1
Response line: 0.0

Prompt line: // next record Cn1cc(NC(=O)c2cc(NC(=O)CCCCCCCC(=O)Nc3cc(C(=O)Nc4cc(C(=O)NCCC(=N)N)n(C)c4)n(C)c3)cn2C)cc1C(=O)NCCC(=N)N
Response line: 1.0

Prompt line: Request: O=C(CNC(=O)c1ccccc1)Oc1c(Cl)c(Cl)c(Cl)c(Cl)c1Cl
Response line: 0.0

Prompt line: Now the same for COCC1C(=O)c2cc3c(cc2C12C=CC1(C=C2)OCCO1)OCO3 (configuration not stated)
Response line: 0.0

Prompt line: Proceed to CN(C)CC(C)(C)/C(=N\Nc1ccccc1)c1ccccc1
Response line: 0.0

Prompt line: Can you check Nc1ccc(SSc2ccc(N)cc2)cc1 next?
Response line: 0.0

* * *

# assay: NCI Yeast Anticancer Drug Screen. Data for the sgs1 mgt1 strain (AID 161);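 also: 0% = growth of cultures given vehicle only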
# condition parameters: S. cerevisiae sgs1 mgt1 strain, at 50.0 µM (retest, dose inferred, filed as 5.0), stronger effect = higher value
Compounds without any hit were thinned out: in the full panel of roughly 79,000, 15% have a hit.
Please respond with reported growth inhibition for every item in the list.
One number for each entry, in %.

Record growth inhibition per entry; entries follow.
1. C=C(c1ccccc1)[N+](=O)[O-]
2. CNC(=N)c1ccc(NC(=N)c2ccc(NC(=O)c3ccc(C(=O)Nc4ccc(C(=N)Nc5ccc(C(=N)NC)cc5)cc4)cc3)cc2)cc1
3. O=c1cc(CI)oc2ccccc12
4. CCNCCNc1cc(O)c2c(c1O)C(=O)c1ccccc1C2=O
5. CN(C)CCCNc1ccc2c(=O)n(CCN(C)C)c(=O)n3c4ccccc4c(=O)c1c23
6. Nc1ccc(Cc2ccc(Cl)cc2)cc1
7. Cc1ccccc1[P+](C)(c1ccccc1C)c1ccccc1C

Response line:
1. 99
2. 61
3. 99
4. 98
5. 18
6. 95
7. 89

* * *

Would you mind telling me the reported growth inhibition of each entry?
# assay: NCI Yeast Anticancer Drug Screen. Data for the rad50 strain (AID 155);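 also: 0% = growth of vehicle-only cultures of the same strain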
# condition parameters: S. cerevisiae rad50 strain growth inhibition; at 50.0 µM; stronger effect = higher value
About 79,000 compounds went through this panel and 15% of them were active in at least one assay; those are over-represented in the sample as a whole.
One number for each entry, in %.

compound=OC(CNc1ccnc2cc(Cl)ccc12)CNc1ccnc2cc(Cl)ccc12 display_unit=% number=40
compound="C[N+](C)(C)c1nc(N)nc2c1ncn2C1OC(CO)C(O)C1O (centres undefined)" display_unit=% number=29.5
compound=CC(=O)/C=C1\C(=O)Nc2ccccc21 display_unit=% number=85.1

Give me growth inhibition for each of these compounds, listed below.
1. CC1CC(C)CC(NC2=NCCO2)C1 (centres undefined)
2. O=C1/C(=C/c2ccccc2)CCCc2ccccc21
3. C=CCC(O)C(=O)OC1CC(C)CCC1C(C)(C)c1ccccc1 (centres undefined)
4. O=C(Nc1ccc(S(=O)(=O)NC2CCCCC2)cc1)OCc1ccccc1
5. OC(Cc1ccccc1)(c1ccccc1)C(O)(Cc1ccccc1)c1ccccc1 (centres undefined)
6. Cc1ccc(NS(=O)(=O)c2ccc(C)cc2)cc1
7. COc1ccccc1/C=C1\S/C(=N/Nc2nc(C)c(C(C)=O)s2)NC1=O

Response line:
-4.1
59.8
99
57
85.2
37.6
-14.6

// each listed compound needs a value for growth inhibition
1. Oc1ccc2ccc3ccccc3c2c1
2. NC(N)=N/N=C/c1ccc([N+](=O)[O-])o1

Response line:
99.5
66

Below is a list of compounds. For each, state its recorded growth inhibition.
1. S=c1[nH]c2ccc(Cl)cc2s1
2. Cc1c2ccccc2c(CSC(=N)N)c2ccccc12

Response line:
72.9
99.5

* * *

# assay: NCI Yeast Anticancer Drug Screen. Data for the bub3 strain (AID 167)
# condition parameters: S. cerevisiae bub3 mutant strain, at 50.0 µM (retest, dose inferred, filed as 5.0), stronger effect = higher value
This is part of a sample that, as a whole, favours compounds with a hit. Of some 79,000 tested, about 15% had one in any assay.
measured quantity: growth inhibition (%)
Give bare numbers, in %.

Worked cases, answers included:
compound=Cc1ccc(I)c(C(C)(C)O)c1 number=86
compound=CCOCCC(=O)NNc1ccccc1 number=83
compound=O=[N+]([O-])c1ccc(Cl)cc1C=NC12CC3CC(CC(C3)C1)C2 number=9
compound="C=C(CCC(C)C1CCC2(C)C3=C(CC(O)C12C)C1(C)CCC(O)C(C)(C)C1CC3)C(C)C(=O)O (stereo not given)" number=94

Okay, now this compound:
Prompt line: Given the compound CCN(CC)CCOc1ccc(/C(C#N)=C/c2ccc(C(F)(F)F)cc2)cc1 , what is its reported growth inhibition?
Response line: 98

* * *

# assay: NCI Yeast Anticancer Drug Screen. Data for the rad50 strain (AID 155);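 also: 0% = growth of vehicle-only cultures of the same strain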
# condition parameters: S. cerevisiae rad50 strain growth inhibition; at 50.0 µM (retest, dose inferred, filed as 5.0)
Compounds without any hit were thinned out: in the full panel of roughly 79,000, 15% have a hit. Activity calls are given as the source filed them. Rule as the data show it: active = growth inhibition above about 70%; inactive = the rest.
Use one of these outcomes when replying: Y for active, N for inactive

Worked examples, 3 compounds total:
compound=O=C(Nc1cc(Cl)cc(Cl)c1)OCCCl qualitative_label=Y
compound="CCCCCCC(O)C(CO)CCCCC (stereo not given)" qualitative_label=Y
compound=CNC(=O)c1ccc(OC)cc1C1(O)c2ccccc2CCc2ccccc21 qualitative_label=N

Prompt line: # fetch the recorded call for NNCc1cc(Cl)c2cccnc2c1O here
Response line: Y

Prompt line: Next: COc1ccc(C(SCC(N)C(=O)O)(c2ccc(OC)cc2)c2ccc(OC)cc2)cc1 (stereo not given)
Response line: Y

Prompt line: Next up: CCOC(=O)c1csc(/C=C/c2cc(OC)c(OC)c(OC)c2)n1
Response line: N

Prompt line: Check O=C1NC2(C=Cc3c(ccc4ccccc34)O2)Oc2ccccc21 (stereo not given) too.
Response line: N

Prompt line: And for C=C1C[C@@]2(OC)OCC[C@H]3C(C)=CCC(C1=O)[C@]32C(=O)OC (stereo not given in full) ?
Response line: Y

Prompt line: Would you mind doing CCCCCCN(CCCCCC)CCC(=O)c1ccc2cc(Br)c3ccccc3c2c1 as well?
Response line: Y

Prompt line: // repeat for COc1ccc(OC)c2c(C(=O)O)c(C(C)c3ccccc3)ccc12 (stereo not given) and report
Response line: Y
